# subject of test: cellular BACE1 in CHOK1-huAPP cells
# assay comment: cell-based or functional assay
Readings of % Max Inhibition for the listed binders
// note: answer is a bare numeric in %

Short answer for 3C11 (antibody, human IgG1, V domains shown, chimeric, human IgG1/kappa; also called Clone 3C11) VH: EVQLQQSGADLMKPGASVKLSCKATGYTFTGYWIEWVKQRPGHGLEWIGEIFPGSVSTNYNEKFKGKATFTADTSSNTAYMQLSSLTTEDSAIYYCARSPIYYDYADYWGQGTTLTVSS VL: DIVLSQSHKFMSTSVGDRVSITCKASQDVGTAVAWYQQKPGQSPKALIYLASNRHTGVPDRFTGSGSGTDFTLTISNVQSEDLAEYFCQQYNSYPYTFGGGTRLEIK : % Max Inhibition was 56

Now look at this entry.
Short answer for 2E1 (antibody, human IgG1, V domains shown, chimeric, human IgG1/kappa; also called Clone 2E1) VH: EVQLQQPGTELVRPGTSVKLSCKASGYTFTNFWMHWVKQRPGQGLEWIGVINPSDTYTKFNQKFRGKATLTVDTSSSTAYMQLSSLTSEDSAVYFCARPTVGLDYWGQGTSVTVSS VL: DIVMTQSQKFMPTSVGDRVSVTCKASQNVGSNVAWYQQKSGQSPKALIYSASHRYSGVPDRFTGSGSGTDFTLTISNVQSEDLAEYFCQQYNSYPYTFGGGTKLEIK : % Max Inhibition was 63
